experiment: in vitro; settings: human, hela cells, % viability
Binary call on viability at 28.5 h, 10 µM with cut-off 90%: strictly below means Condition met, and equality or higher means Condition not met.

Say whether its viability at 28.5 h, 10 µM is strictly beneath 90%. Entry: `Cc1ccc(OC(=O)CCC(=O)Nc2ccc(S(N)(=O)=O)cc2)cc1`
Condition not met

Say whether its viability at 28.5 h, 10 µM is strictly beneath 90%. Entry: `N[C@H]1CCN2C(=O)c3cc(-c4ccc(F)cc4F)ccc3NC(=O)[C@H]12`
Condition not met

Say whether its viability at 28.5 h, 10 µM is strictly beneath 90%. Entry: `COCCNC(=O)c1ccc(-c2ccccc2CO)nc1N1CCOCC1`
Condition not met

Say whether its viability at 28.5 h, 10 µM is strictly beneath 90%. Entry: `c1ccc(CCNc2cc(-c3ccsc3)ncn2)nc1`
Condition not met

Say whether its viability at 28.5 h, 10 µM is strictly beneath 90%. Entry: `CCCCC(=O)NC(Nc1cc(C)ccn1)(C(F)(F)F)C(F)(F)F`
Condition met

Say whether its viability at 28.5 h, 10 µM is strictly beneath 90%. Entry: `Cc1cccc(N(CC(=O)Nc2cccnc2)S(=O)(=O)c2ccc(Cl)cc2)c1`
Condition met

Say whether its viability at 28.5 h, 10 µM is strictly beneath 90%. Entry: `COc1ccc2sc(Br)c(C(=O)O)c2c1`
Condition not met

Say whether its viability at 28.5 h, 10 µM is strictly beneath 90%. Entry: Cn1cnc2c(ncn2C2OC(CO)C(O)C2O)c1=N (centres unmarked)
Condition not met

Say whether its viability at 28.5 h, 10 µM is strictly beneath 90%. Entry: OCCN1CCN(CC(O)COCC2COc3ccccc3O2)CC1 (centres unmarked) [CBK027374C]
Condition not met

Say whether its viability at 28.5 h, 10 µM is strictly beneath 90%. Entry: `O=C(CN1CCCC1)Nc1sc2c(c1C(=O)NCc1ccccc1)CCCC2`
Condition not met

Say whether its viability at 28.5 h, 10 µM is strictly beneath 90%. Entry: `Cc1ccc(S(=O)(=O)NC(=O)NCCCCNC(=O)NS(=O)(=O)c2ccc(C)cc2)cc1`
Condition not met

Say whether its viability at 28.5 h, 10 µM is strictly beneath 90%. Entry: `O=C1c2ccccc2C(=O)N1CSc1nnc2c3ccccc3n(CCc3ccccc3)c2n1`
Condition not met

Say whether its viability at 28.5 h, 10 µM is strictly beneath 90%. Entry: O=S(=O)(c1ccc2ccccc2c1)N1CCN(C2CCCCCCC2)CC1 [CBK264186G]
Condition not met

Say whether its viability at 28.5 h, 10 µM is strictly beneath 90%. Entry: `O=C(NC(=S)Nc1ccc2[nH]c(=O)[nH]c2c1)c1ccc(OCc2ccccc2)cc1`
Condition met

Say whether its viability at 28.5 h, 10 µM is strictly beneath 90%. Entry: `CCN(CCO)c1ccc(Nc2nc(Br)cn3ccnc23)cc1`
Condition not met

Say whether its viability at 28.5 h, 10 µM is strictly beneath 90%. Entry: CC12CCC(C(=O)Nc3ccccc3)(OC1=O)C2(C)C (centres unmarked)
Condition not met

###

Could you please report measured viability at 28.5 h, 10 µM for the items listed next?
assay: in vitro; conditions: human, hela cells, % viability
Could you give me the number in %? Just the number is fine.

Data request, read-out viability at 28.5 h, 10 µM, for CCC1c2ccc(C)n2CCN1C(=O)c1cc(-c2ccccn2)n[nH]1 (stereo not shown) [CBK283225]
86.4

Data request, read-out viability at 28.5 h, 10 µM, for CCC1C(c2ccc(C)cc2)=CCC(C(=O)NCCCN(C)C)C1C (stereo not shown) [CBK016514]
79.6

Data request, read-out viability at 28.5 h, 10 µM, for Clc1cncc(OCCc2c[nH]c3ccccc23)n1 [CBK176027]
65.2

Data request, read-out viability at 28.5 h, 10 µM, for CN1CCOc2ccccc2C(=O)NC/C=C/CC2(CCCNC2)C1=O (stereo not shown) [CBK292027]
107

Data request, read-out viability at 28.5 h, 10 µM, for CCOc1cc(C=O)ccc1OCc1c(C)no[n+]1[O-] [CBK263449]
92.1

Data request, read-out viability at 28.5 h, 10 µM, for CCc1nn2c(=O)cc(CN3CCN(C(=O)c4cccs4)CC3)nc2s1 [CBK306474]
108

Data request, read-out viability at 28.5 h, 10 µM, for Cc1ccc(C(C)C)c(OCc2ccc(C(=O)O)o2)c1 [CBK078089]
108

Data request, read-out viability at 28.5 h, 10 µM, for O=C(O)Cc1sc(-c2ccc3c(c2)OCO3)nc1-c1ccccc1 [CBK200114]
87.3

Data request, read-out viability at 28.5 h, 10 µM, for Oc1cccc(-c2nccnc2NCc2ccc(Cl)cc2)c1 [CBK037650]
92.8

Data request, read-out viability at 28.5 h, 10 µM, for CC(C)(C)c1csc(N2CCSCC2)n1 [CBK021950]
119

###

Could you please report measured viability at 28.5 h, 10 µM for the items listed next?
experiment: in vitro; conditions: human, hela cells, % viability
Could you give me the number in %? Just the number is fine.

Data request, read-out viability at 28.5 h, 10 µM, for NC(=O)CCN1CCc2ccccc2C1 [CBK138325]
88.3

Data request, read-out viability at 28.5 h, 10 µM, for O=C(O)CCn1c(-c2ccc(F)cc2)cc2cccnc21 [CBK282583]
84.4

Data request, read-out viability at 28.5 h, 10 µM, for O=C(Cc1c[nH]cn1)Nc1cccc2cc[nH]c12 [CBK160097]
86.2

Data request, read-out viability at 28.5 h, 10 µM, for COc1cccc(C(=O)NC(=S)Nc2ccc(C(=O)O)c(Cl)c2)c1 [CBK265065]
103

Data request, read-out viability at 28.5 h, 10 µM, for O=C(CSc1nnc(-c2cccnc2)n1Cc1ccccc1)Nc1ccc(F)cc1 [CBK267528]
96.8

Data request, read-out viability at 28.5 h, 10 µM, for FC(F)(F)c1ccnc(OCCN2CCOCC2)c1 [CBK113286]
97.1

Data request, read-out viability at 28.5 h, 10 µM, for O=C(NC1Cc2ccccc2C1)c1nc2ccccc2[nH]1 [CBK200361]
102

Data request, read-out viability at 28.5 h, 10 µM, for O=C(NCc1ccccc1)c1ccno1 [CBK200197]
86.9

Data request, read-out viability at 28.5 h, 10 µM, for Cc1nc2nc(N)nn2c(C)c1CCC(=O)NCc1cccc(Cl)c1 [CBK304993]
87.5

Data request, read-out viability at 28.5 h, 10 µM, for O=C(c1ccccc1O)N1CCN(Cc2cc(=O)n3ccsc3n2)CC1 [CBK306096]
90.2

Data request, read-out viability at 28.5 h, 10 µM, for CCN1CCN(C(=O)c2c[nH]c3ccccc23)CC1 [CBK200245]
103

Data request, read-out viability at 28.5 h, 10 µM, for CN1CCC(N2CCN(C(=O)c3ccccc3Nc3cccc(C(F)(F)F)c3)CC2)CC1 [CBK149097]
88.7

Data request, read-out viability at 28.5 h, 10 µM, for CCC(CC)NS(=O)(=O)c1cccc(C(=O)O)c1 [CBK287225]
88.3

Data request, read-out viability at 28.5 h, 10 µM, for CC(C)C[C@@H](C(=O)N1CCC(C(=O)O)CC1)n1c(=O)[nH]c2ccccc2c1=O [CBK286762]
88.5

Data request, read-out viability at 28.5 h, 10 µM, for CN(C)CCCNC(=O)c1cc2c(n(-c3ccc(Cl)c(Cl)c3)c1=O)CC(C)(C)CC2=O [CBK293952]
87.4

Data request, read-out viability at 28.5 h, 10 µM, for Cc1ncc(CNC(=O)C2CC2)c(-c2cn(C)c3ccccc23)n1 [CBK283366]
103

Data request, read-out viability at 28.5 h, 10 µM, for O=c1ccc2ccc(-c3cccc(OCc4ccccc4)c3)nc2[nH]1 [CBK073722]
95.9

Data request, read-out viability at 28.5 h, 10 µM, for CN1CCC[C@H]1COc1ncccc1OCCO [CBK042185]
92.6

Data request, read-out viability at 28.5 h, 10 µM, for Oc1cccc(-c2cc(CC3(NCc4cnc5ccccc5c4)COC3)no2)c1 [CBK289662]
107

Data request, read-out viability at 28.5 h, 10 µM, for O=C(Nc1ccccc1)c1ccc(S(=O)(=O)N2CCC(C(=O)O)CC2)cc1 [CBK267806]
89.7

###

assay: in vitro; conditions: human, hela cells, % viability
Could you please report measured viability at 28.5 h, 10 µM for the items listed next?
Could you give me the number in %? Just the number is fine.

Data request, read-out viability at 28.5 h, 10 µM, for `CN(C)CCNC(=O)C1CCN(c2nc3c(-c4ccccc4F)csc3c(=O)[nH]2)CC1`
85.1

Data request, read-out viability at 28.5 h, 10 µM, for O=C(O)CN1C(=O)C2CCC(c3ccccc3)CC2C1=O (stereo not shown)
95.7

Data request, read-out viability at 28.5 h, 10 µM, for `CN1CCCN(c2cncc(-c3ccc(F)c(Cl)c3)n2)CC1`
96.4

Data request, read-out viability at 28.5 h, 10 µM, for `O=S(=O)(CCN1CCN(Cc2ccccc2)CC1)c1ccc(F)cc1`
108

Data request, read-out viability at 28.5 h, 10 µM, for `O=C(O)COCc1cc(-c2ccc3c(c2)OCO3)on1`
110

Data request, read-out viability at 28.5 h, 10 µM, for Cc1cccc2c1OCC[C@@H]2Oc1cncc(N2CCNCC2)n1 [CBK172310G]
101

Data request, read-out viability at 28.5 h, 10 µM, for `O=C1NC2(CCN(C(=O)Cc3ccsc3)CC2)Nc2ccccc21`
94.7

Data request, read-out viability at 28.5 h, 10 µM, for `CCCc1[nH]nc(O)c1Cc1ccc(F)cc1F`
85.7

Data request, read-out viability at 28.5 h, 10 µM, for Cc1nc(-c2cccnc2)sc1C(=O)NC(C)C1CC2CCC1C2 (stereo not shown)
84.2

Data request, read-out viability at 28.5 h, 10 µM, for COc1ccc2[nH]c(CN3CCCC(c4nc(C)n[nH]4)C3)c(C)c2c1 (stereo not shown)
101
